Test system: A549
Experiment: Inhibition of induction of ICAM1 expression in human A549 cells in presence of IL1-alpha after 1 hr
Assay type: functional, cell-based
Conditions: A549, 1 h
Measured endpoint: IC50 (µM)

{"Smiles structure": "CO[C@@H]1C[C@H](O[C@H]2CC[C@@]3(C)[C@H](CC[C@]4(O)[C@@H]3CC[C@]3(C)[C@@H](C5=CC(=O)OC5)CC[C@@]34O)C2)O[C@H](C)[C@@H]1O", "Measured endpoint": "IC50", "Observed result": 6}
{"Smiles structure": "CO[C@H]1C[C@H](O[C@H]2CC[C@@]3(C)[C@H](CC[C@@]45O[C@@]46CC=C(C4=CC(=O)OC4)[C@@]6(C)CC[C@H]35)C2)O[C@H](C)[C@@H]1O", "Measured endpoint": "IC50", "Observed result": 69.3}
{"Smiles structure": "CO[C@@H]1C[C@H](O[C@H]2CC[C@@]3(C)[C@@H](CC[C@@H]4[C@@H]3CC[C@]3(C)[C@@H](C5=CC(=O)OC5)[C@@H](OC(C)=O)C[C@]43O)C2)O[C@H](C)[C@@H]1O", "Measured endpoint": "IC50", "Observed result": 21.5}
